- Measurement Notes: blockers of an Epstein-Barr virus protein-peptide interaction – biochemical, fluorescence polarization, dose response (AID 1419)
- Assay Setup: cell-free protein-peptide binding, 2 h
Activity calls are given as the source filed them. How the calls were made is not given here.
Classes used: 1 (yes) (active), 0 (no) (inactive)

Compound | Category
COC(=O)c1cc2c(C)c(C)c3ccccn3c-2c1C(=O)OC | 1 (yes)
Cc1ccc(S(=O)(=O)c2cc3c(=O)n4ccccc4nc3n(Cc3ccco3)c2=N)cc1 | 0 (no)
Nc1c(S(=O)(=O)c2ccccc2)c2nc3ccccc3nc2n1Cc1ccco1 | 0 (no)
Cc1c2ccccc2nc2c(F)c(N(C)C)c(F)c(F)c12 | 1 (yes)
O=C(COC(=O)c1ccc(NS(=O)(=O)c2cccs2)cc1)NCc1ccco1 | 0 (no)
C=CCN1C(=O)/C(=C\C=C2\N(C)c3ccccc3C2(C)C)SC1=S | 1 (yes)
CN(C)c1ccc(N=Cc2nc(-c3ccccc3)oc2O)cc1 | 1 (yes)
CC(=O)Oc1ccc2c(c1)O/C(=C\c1ccncc1)C2=O | 1 (yes)
Cc1ccc(NC2=Nc3ccccc3N3C2=Nc2c(c(C)nn2-c2ccccc2)C3c2ccc(O)c(O)c2)cc1 (configuration not stated) | 1 (yes)
NS(=O)(=O)c1ccc(NC(=O)c2ccc(-c3ccccc3)cc2)cc1 | 1 (yes)
O=C1NC(=O)N(c2ccc(F)cc2)C(=O)/C1=C/c1ccc2c(c1)CCCN2Cc1ccccc1 | 1 (yes)
CCOC(=O)c1sc2nc3c(SCCC(=O)O)cc(C(=O)c4cc(OC)ccc4O)cn3c(=O)c2c1C | 0 (no)
Oc1ccc2ccccc2c1N=Nc1ccc(F)cc1 | 0 (no)
Cn1c(=O)c(NC2CCCCC2)c2c3c(cccc31)C(=O)c1ccccc1-2 | 1 (yes)
CCOC(=O)c1oc2cc(OCC(=O)OC)ccc2c(=O)c1-c1ccc(OC)c(OC)c1 | 0 (no)
CCCCOC(=O)Cn1c2ccc(OC)cc2c2nc3ccccc3nc21 | 1 (yes)
O=c1ccc2[n+]([O-])c3ccc(O)cc3oc-2c1 | 1 (yes)
COCCCNC(=O)c1ccc2c3c(onc13)-c1ccccc1C2=O | 1 (yes)
S=C(Nc1ccc(N2CCOCC2)cc1)Nc1ccc2nc(-c3ccco3)c(-c3ccco3)nc2c1 | 1 (yes)
N#Cc1c(N)sc(=S)c2c1CCCC2 | 0 (no)
CC(=O)Nc1nc(C)c(-c2csc(Nc3cccc([N+](=O)[O-])c3)n2)s1 | 0 (no)
Cc1nc2ccccc2n2c(O)c(CC(=O)O)cc12 | 0 (no)

====

- Measurement Notes: blockers of an Epstein-Barr virus protein-peptide interaction – biochemical, fluorescence polarization, dose response (AID 1419)
- Assay Setup: cell-free protein-peptide binding, 2 h
Active and inactive are the calls of the source. No rule for the calls is given here.
Outcomes: YES for active, NO for inactive

Compound | Category
Cc1ccc(C2=N/C(=C\c3c(C)nn(-c4ccccc4)c3N3CCCC3)C(=O)O2)cc1 | YES
O=C(COc1ccc(/C=N/NC(=O)c2ccc(O)cc2)cc1)Nc1ccc([N+](=O)[O-])cc1 | YES
COc1ccc(N=Cc2c(O)n(Cc3ccccc3)c(=S)[nH]c2=O)c(OC)c1 | NO
CCOc1ccc(-n2c(O)c(C=Nc3ccc(N(CC)CC)cc3)c(=O)[nH]c2=O)cc1 | YES
CCN(CC)c1ccc(/C=C/c2cc(-c3ccccc3)c3ccccc3n2)cc1 | YES
COc1cc(/C=C2\SC(=O)N(Cc3ccc(Cl)cc3)C2=O)cc([N+](=O)[O-])c1O | YES
Cc1nn(C)c(C)c1CN(C)C(=O)C1c2ccccc2Oc2ccccc21 | YES
O=C(NCCCn1ccnc1)c1ccc2c(c1)OCCO2 | NO
CCCCCCOC(=O)C(C#N)c1nc2ccccc2nc1N1CCOCC1 (stereo not given) | YES
COC(=O)c1cc2c(C)cc3ccc(C)cn3c-2c1C(=O)OC | YES

====

- Measurement Notes: blockers of an Epstein-Barr virus protein-peptide interaction – biochemical, fluorescence polarization, dose response (AID 1419)
- Assay Setup: cell-free protein-peptide binding, 2 h
Activity calls are given as the source filed them. The rule behind the calls is not given here.
Labels: active, inactive

Compound | Category
CN1CCC2(CC1)C1CN(C)CC=C1C(C#N)=C(N)C2(C#N)C#N (stereo unspecified) | active
c1ccc(-c2[nH]c(-c3ccccc3)[n+](CC3CO3)c2-c2ccccc2)cc1 (stereo unspecified) | inactive
CC(C)(C)c1ccc(OCC(=O)Nc2ccc3c4c(cccc24)C(=O)NC3=O)cc1 | inactive
COCCN=c1scc(-c2ccco2)n1/N=C/c1ccc(O)c(O)c1O | active
NS(=O)(=O)c1ccc(N/N=C/c2ccc(O)c(O)c2O)c([N+](=O)[O-])c1 | active
O=c1oc2ccccc2cc1-c1nc(-c2cccs2)cs1 | active
O=C(OCCN1C(=O)c2cccc3c(N4CCOCC4)ccc(c23)C1=O)c1cc(Cl)cc(Cl)c1 | active
O=[N+]([O-])c1ccc(N2N=C(c3ccco3)CC2c2ccccc2)cc1 (stereo unspecified) | active
CCCCC1=CC2=C(c3ccco3)C(=O)C(C)(OC(=O)c3ccc(OC)cc3)C(=O)C2=CN1CCc1ccccn1 (stereo unspecified) | inactive
O=C(COC(=O)c1c2c(nc3ccccc13)/C(=C/c1ccco1)CC2)NC1CCCC1 | inactive
O=[N+]([O-])c1ccccc1/C=C/C=N/n1c(-c2ccc(Cl)cc2)n[nH]c1=S | inactive
CCN(CC)c1ccc(N=Cc2c(O)n(CCc3ccc(OC)c(OC)c3)c(=O)[nH]c2=O)cc1 | inactive
CC1=CC(C#N)(C#N)C(C#N)(C#N)C(c2ccccc2)N1 (stereo unspecified) | active
Cc1cc(S(=O)(=O)Nc2nc(CN3CCOCC3)nc3sc4c(c23)CCCC4)ccc1F | inactive
CCCCC1=CC2=C(c3ccco3)C(=O)C(C)(OC(=O)c3ccc(OC)cc3)C(=O)C2=CN1Cc1ccccc1 (stereo unspecified) | inactive
CC(=O)Nc1cccc(C2=CC(c3ccco3)n3ncnc3N2)c1 (stereo unspecified) | active
CCN(CC)c1ccc2cc(-c3nc(-c4ccc(OC)cc4)cs3)c(=O)oc2c1 | active
N#Cc1c(C#N)c(O)c2ccccc2c1O | active
COC(=O)c1ccc(C)c(NC(=O)CCSc2ccc(Cl)cc2)c1 | inactive
C=CCSc1nccc(-c2cc(Cl)sc2Cl)n1 | inactive
O=C(NCCCO)Nc1ccc2nc(-c3ccco3)c(-c3ccco3)nc2c1 | active

====

# Lookup of reported IC50 keyed by entry
- Measurement Notes: blockers of an Epstein-Barr virus protein-peptide interaction – biochemical, fluorescence polarization, dose response (AID 1419)
- Assay Setup: cell-free protein-peptide binding, 2 h
Activity calls are given as the source filed them. The rule behind the calls is not given here.
Measurement Type: IC50

Compound | Observed Result
CN(C)c1ccc(/C=C2\SC(=O)N(CC(O)Cn3c4ccccc4c4ccccc43)C2=O)cc1 (stereo not given) | 2460 nM
CCCc1cc(=O)n(-c2nc3ccccc3s2)[nH]1 | > 54000 nM (inactive)
CC(=O)Nc1ccc(Nc2c3c4c(cccc4n(C)c2=O)C(=O)c2ccccc2-3)cc1 | < 420 nM
CN(c1ncc(C(F)(F)F)cc1Cl)N1C(=O)c2cccc(N)c2C1=O | 3830 nM
Cn1c(=O)c(Nc2ccc(O)cc2)c2c3c(cccc31)C(=O)c1ccccc1-2 | < 420 nM

====

- Measurement Notes: blockers of an Epstein-Barr virus protein-peptide interaction – biochemical, fluorescence polarization, dose response (AID 1419)
- Assay Setup: cell-free protein-peptide binding, 2 h
Activity calls are given as the source filed them. No rule for the calls is given here.
Outcomes: active, inactive

Compound | Category
CN(C)c1ncnc2c1NC1=C(S2)C(=NCCCC(=O)O)CC(C)(C)C1 | active
C#CCn1cc(C=C2C(=O)c3ccccc3C2=O)c2ccccc21 | active
CC(C)Oc1ccc(-c2nn(-c3ccccc3)cc2/C=c2\sc3ncnn3c2=O)cc1 | active
Cc1cc(C(F)(F)F)n2nc(-c3sccc3-n3cccc3)cc2n1 | inactive
COC(=O)c1cc2c(-c3ccccc3)cc3ccccn3c-2c1C(=O)OC | active

====

- Measurement Notes: blockers of an Epstein-Barr virus protein-peptide interaction – biochemical, fluorescence polarization, dose response (AID 1419)
- Assay Setup: cell-free protein-peptide binding, 2 h
Calls of active or inactive are those of the source. How the calls were made is not given here.
Possible outcomes: active, inactive

Molecule | Category
CCOC(=O)c1c(C)[nH]c(C)c1C(=O)CSc1nc2ccccc2n1CC | inactive
COc1ccc(N/C=C2\C(=O)CCc3c2oc2cc(Cl)c(O)c(Cl)c32)cc1 | inactive
CC1=C/C(=C\c2ccc(Br)o2)C(=O)O1 | inactive
COc1cc2c(cc1NC(=O)CN1C(=O)NC3(CCc4ccccc43)C1=O)oc1ccccc12 (stereo unspecified) | inactive
O=C(Nc1cccc(Cl)c1)c1cc(N=Nc2ccc([N+](=O)[O-])cc2Cl)ccc1O | active
CN(C)c1ccnc2sc(C(=O)c3ccc(Br)cc3)c(N)c12 | inactive

====

- Measurement Notes: blockers of an Epstein-Barr virus protein-peptide interaction – biochemical, fluorescence polarization, dose response (AID 1419)
- Assay Setup: cell-free protein-peptide binding, 2 h
Activity calls are given as the source filed them. How the calls were made is not given here.
Possible outcomes: true (1) = active, false (0) = inactive

Compound | Category
CCC1=NN2C(=N)/C(=C\c3ccc(OCc4cc(=O)n5nc(CC)sc5n4)c(OC)c3)C(=O)N=C2S1 | false (0)
CCOC(=O)/C(C#N)=C/c1ccc(N2CCN(Cc3ccccc3)CC2)cc1 | false (0)
COc1ccc2c3c(cccc13)C(=O)N(O)C2=O | true (1)
CCOC(=O)c1ccc(N2C(=O)C3C(C2=O)C(C(=O)c2ccc(Cl)cc2)N2CCCC32)cc1 (stereo unspecified) | true (1)
Cc1c(N=C2N=C(NC(=O)c3ccc(F)cc3)c3ccccc32)c(=O)n(-c2ccccc2)n1C | true (1)
CN(C)CCCN1C(=O)c2cccc3c(Br)ccc(c23)C1=O | true (1)
O=[N+]([O-])c1ccc(/C=C/c2nc3ccc([N+](=O)[O-])cc3[nH]2)cc1 | true (1)
O=C(c1ccccc1)c1ccc2c(c1)OCCCO2 | false (0)
CCCCCn1c(N)c(-c2nc3ccccc3o2)c2c([N+](=O)[O-])nn(C)c(=O)c21 | false (0)
NC(=O)c1sc2nc3c(c(-c4ccccc4)c2c1N)CCC3 | false (0)
COc1ccc(N=Nc2nc3ccc(Br)cc3n2C)cc1 | false (0)
Nc1ccc2nonc2c1[N+](=O)[O-] | true (1)
Cc1cccc2cc3c(N)c(C(=O)N4CCCc5ccccc54)sc3nc12 | true (1)
O=[N+]([O-])c1cccc(-c2cn3nc(-c4ccccc4)c(-c4ccccc4)nc3n2)c1 | true (1)
CCOC(=O)Cn1c2ccc(OC)cc2c2nc3ccccc3nc21 | true (1)
CCN(CC)C(=O)COC(=O)c1cc(-c2ccco2)nc2ccccc12 | true (1)
COC(=O)c1cc(NC(=O)c2cccc(Cl)c2)c(=O)oc1/C=C/Nc1cc(C)cc(C)c1 | true (1)
O=C1C2CC=C(Cl)CC2C(=O)N1CCCCCCN1C(=O)C2CC=C(Cl)CC2C1=O (stereo unspecified) | true (1)
COC(=O)CN1C(=S)N(c2ccc(OC)cc2)C(=O)/C1=C/c1ccc(N2CCOCC2)cc1 | true (1)
CCOc1ccc(NC(=O)c2cc3c(C)nc4ccccc4c3o2)cc1 | false (0)
O=C(c1ccco1)[C@@H]1[C@@H]2C(=O)N(c3ccc(F)cc3)C(=O)[C@@H]2C2c3ccccc3C=CN21 (stereo partly specified) | true (1)

Where do the numbers come from? From PubChem BioAssay AID1419.
